Recorded values, source patent US6972287B1.

- target: Aβ (1-42) (Homo sapiens, UniProt P05067)
- Construct: Required Aβ (1-42) (California Peptide) was dried from its hexafluoroisopropanol (HFIP) stock solution; purchased California Peptide
- Sequence (P05067 672-713 limits assumed): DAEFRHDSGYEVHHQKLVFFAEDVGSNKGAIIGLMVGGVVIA
- experimental_details: BATYM assay (Aβ (1-42) aggregation, Thioflavin T fluorescence)
- Type: biochemical
- measurement_context: Aβ 1-42 final concentration 100 μM, 37° C., 1 day, letter = synthetic lot
I'd appreciate it if you could supply log10 IC50 values for the items below.
Annotation: log10 of IC50, µM basis.

Look at this molecule and give its reported log10 IC50. O=C(O)c1cc([N+](=O)[O-])ccc1Nc1ccc(CCc2cccc(C(F)(F)F)c2Cl)cc1 0.97

And what about the molecule O=C(O)c1cc([N+](=O)[O-])ccc1Nc1ccc(CCc2ccc(Cl)c(Cl)c2)cc1 ? 0.81

And what about the molecule CCCCN1CCCc2cc(C=C3SC(=S)N(CCCC(=O)O)C3=O)ccc21 ? 0.71

And what about the molecule O=C(O)c1ccccc1Nc1ccc(CCCCCc2ccc(Cl)c(Cl)c2)cc1 ? 1.49

And what about the molecule O=C(O)c1ccccc1Nc1ccc(CCc2cc(Cl)cc(Cl)c2)cc1 ? 1.68

And what about the molecule CCCN(CCC)c1ccc(CCCc2ccc(Nc3ccccc3C(=O)O)cc2)cc1 ? 1.38

And what about the molecule O=C(O)c1ccccc1Nc1ccc(CCCc2ccc(N3CCCC3)cc2)cc1 ? 1.48

And what about the molecule O=C(O)c1cc([N+](=O)[O-])ccc1Nc1ccc(CCc2ccccc2Cl)cc1 ? 0.93

And what about the molecule CCCN(CCC)c1cccc(CCc2ccc(Nc3ccccc3C(=O)O)cc2)c1.Cl [Example 37, monohydrochloride] ? 1.48

And what about the molecule O=C(NS(=O)(=O)C(F)(F)F)c1ccccc1Nc1ccc(CCCc2ccc(Cl)c(Cl)c2)cc1 ? 1.75

And what about the molecule Nc1ccc(Nc2ccc(CCc3ccc(Cl)c(Cl)c3)cc2)c(C(=O)O)c1 ? 1.54

And what about the molecule CCCCN(CCCC)c1ccc(CCc2ccc(Nc3ccccc3C(=O)O)cc2)cc1 ? 1.00

And what about the molecule O=C(O)c1cc([N+](=O)[O-])c(-n2ccnc2)cc1Nc1ccc(CCCc2ccc(Cl)c(Cl)c2)cc1 ? 0.86

And what about the molecule O=C(O)c1cc([N+](=O)[O-])ccc1Nc1ccc(CCCCCc2ccc(Cl)c(Cl)c2)cc1 ? 0.81

And what about the molecule O=C(O)c1ccccc1Nc1ccc(CCc2ccc(Cl)c(Cl)c2)cc1 [Example 117, monosodium] ? 1.79

And what about the molecule CCCCN1CCCc2cc(C=C3SC(=S)N(CCC(=O)O)C3=O)ccc21 ? 0.60

And what about the molecule O=C(O)c1ccccc1Nc1ccc(CCc2ccc(F)c(C(F)(F)F)c2)cc1 ? 1.70

And what about the molecule CCCCN(CCCC)c1cccc(CCCc2ccc(Nc3ccccc3C(=O)O)cc2)c1 ? 1.33

And what about the molecule O=C(NS(=O)(=O)c1ccccc1)c1ccccc1Nc1ccc(CCCc2ccc(Cl)c(Cl)c2)cc1 ? 1.43

----------
- target: Aβ(1-40) (Homo sapiens)
- Construct: […]; purchased Bachem, Torrance, Calif
- Sequence (P05067 672-711 limits assumed): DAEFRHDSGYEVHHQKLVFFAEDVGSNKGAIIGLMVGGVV
- experimental_details: BASST (Beta-Amyloid Self-Seeding, Thioflavin T), inhibitors of self-seeded amyloid fibril growth
- Type: biochemical
- measurement_context: 30 μM soluble Aβ(1-40), 37° C., 3 to 5 hours, thioflavin T fluorescence; replicate values; letter = synthetic lot; read-out: BASST (IC50 = μM)
- Description: An assay for inhibitors of self-seeded amyloid fibril growth Assay Buffer—50 mM sodium phosphate, pH 7.5, 100 mM NaCl, 0.02% NaN3, 1 M urea (filter and store at 4° C.) Typically, the solution should be stored until no lag phase is seen in the assay. The following are the amounts of the components of the reaction mixture that result in each of the 50 assay wells: […]
I'd appreciate it if you could supply log10(IC50) values for the items below.
Annotation: log10 of IC50, µM basis.

Look at this compound and give its reported log10(IC50). O=C(O)c1cccc(Nc2ccc(CCc3ccc(Cl)c(Cl)c3)cc2)c1 1.00

And what about the compound CCN(CC)C(=O)c1ccc(CCCc2ccc(Nc3ccccc3C(=O)O)cc2)cc1 ? 1.00

And what about the compound CCCCN1CCCc2cc(C=C3SC(=S)N(CCC(=O)O)C3=O)ccc21 ? 0.18

And what about the compound Cc1cc(-c2ccc3c(c2)OCO3)ccc1Nc1ccccc1C(=O)O ? 1.26

And what about the compound COc1ccc(Nc2ccc(CCCCc3ccc(Cl)c(Cl)c3)cc2)c(C(=O)O)c1 ? 0.00

And what about the compound O=C(O)c1ccccc1Nc1ccc(CCc2cccc(N(Cc3ccccc3)Cc3ccccc3)c2)cc1 ? 0.00

And what about the compound CCNc1ccc(CCCc2ccc(Nc3ccccc3C(=O)O)cc2)cc1 ? 0.60

And what about the compound O=C(O)c1ccccc1Nc1ccc(CCCc2cccc([N+](=O)[O-])c2)cc1 ? 0.60

And what about the compound O=C(O)c1cc([N+](=O)[O-])ccc1Nc1ccc(CCc2cccc(Cl)c2)cc1 ? -0.52

And what about the compound O=C(O)c1ccccc1Nc1ccc(CCc2ccc(Oc3ccccc3)cc2)cc1 ? 0.30

And what about the compound CN(C)c1ccc(Nc2ccc(CCc3ccc(Cl)c(Cl)c3)cc2)c(C(=O)O)c1 ? 0.60

And what about the compound O=C(O)c1cc([N+](=O)[O-])cc([N+](=O)[O-])c1Nc1ccc(CCCCc2ccc(Cl)c(Cl)c2)cc1 ? 0.00

And what about the compound O=C(O)c1ccccc1Nc1ccc(CCCCCc2ccc(Cl)c(Cl)c2)cc1 ? 0.08

And what about the compound O=C(O)c1ccccc1Nc1ccc(-c2cc(Cl)cc(Cl)c2)cc1 ? 0.48

And what about the compound CN(C)c1ccc(N(C)c2ccc(CCc3ccc(Cl)c(Cl)c3)cc2)c(C(=O)O)c1 ? 1.00

And what about the compound O=C(O)c1cc([N+](=O)[O-])ccc1Nc1ccc(CCc2ccc(F)c(C(F)(F)F)c2)cc1 ? -0.10

And what about the compound Cl.O=C(O)c1ccccc1Nc1ccc(CCc2cccc(N3CCCCC3)c2)cc1 [Example 42, monohydrochloride] ? 0.30

And what about the compound CN(C)c1cccc(CCCc2ccc(Nc3ccccc3C(=O)O)cc2)c1 ? 0.70

And what about the compound O=C(O)c1ccccc1Nc1cccc(CCCc2ccc(Cl)c(Cl)c2)c1 ? 0.48

And what about the compound O=C(O)c1ccccc1Nc1ccc(CCc2cc(Cl)cc(Cl)c2)cc1 ? 1.18

And what about the compound CCCCN(CCCC)c1cccc(CCCc2ccc(Nc3ccccc3C(=O)O)cc2)c1 ? 0.00

And what about the compound CCCN(CCC)c1cccc(CCc2ccc(Nc3ccccc3C(=O)O)cc2)c1.Cl [Example 37, monohydrochloride] ? -0.10

And what about the compound O=C(O)c1ccccc1Nc1ccc(CCCCc2ccc(Cl)c(Cl)c2)cc1 ? 0.60

And what about the compound O=C(O)c1cc([N+](=O)[O-])ccc1Nc1ccc(CCc2ccc(-c3ccccc3)cc2)cc1 ? 0.18

And what about the compound O=C(O)c1cc(F)ccc1Nc1ccc(CCc2ccc(Cl)c(Cl)c2)cc1 ? 0.48

And what about the compound O=C(O)c1cc([N+](=O)[O-])ccc1Nc1ccc(CCc2cccc(C(F)(F)F)c2Cl)cc1 ? 0.00

And what about the compound CCCCN(CCCC)c1ccc(CCc2ccc(Nc3ccccc3C(=O)O)cc2)cc1 ? 0.65

And what about the compound Cc1ccc(Nc2ccc(CCc3ccc(Cl)c(Cl)c3)cc2)c(C(=O)O)c1 ? 0.34

And what about the compound O=C(O)c1cccc(C(F)(F)F)c1Nc1ccc(CCc2ccc(Cl)c(Cl)c2)cc1 ? 1.48

And what about the compound O=C(O)c1ccc(Nc2ccc(CCc3ccc(Cl)c(Cl)c3)cc2)c(C(=O)O)c1 ? 1.60

And what about the compound O=C(O)c1ccccc1Nc1ccc(CCc2ccccc2O)cc1 ? 1.00

----------
I'd appreciate it if you could supply melting point values for the items below.

Look at this molecule and give its reported melting point. CC(=O)Nc1cccc(CCCc2ccc(Nc3ccccc3C(=O)O)cc2)c1 [Example 40] 140 to 145 °C

And what about the molecule Nc1ccc(CCc2ccc(Nc3ccccc3C(=O)O)cc2)cc1 [Example 24] ? 198 to 201 °C

And what about the molecule O=C(O)c1cc([N+](=O)[O-])ccc1Nc1ccc(CCc2ccc(Cl)c(Cl)c2)cc1 [Example 2] ? 214 to 217 °C

And what about the molecule COc1cc(Nc2ccc(CCc3ccc(Cl)c(Cl)c3)cc2)c(C(=O)O)cc1[N+](=O)[O-] [Example 3] ? 208 to 209 °C

And what about the molecule O=C(O)c1ccccc1Nc1ccc(CCc2ccc(F)c(F)c2)cc1 [Example 122] ? 184 to 185 °C

And what about the molecule CCCCN1CCCc2cc(C=C3SC(=S)N(CCC(=O)O)C3=O)ccc21 [Example 57] ? 214 to 215 °C

And what about the molecule O=C(O)c1ccc(CCCc2ccc(Nc3ccccc3C(=O)O)cc2)cc1 [Example 49] ? 236 to 239 °C

And what about the molecule O=C(O)c1cc([N+](=O)[O-])ccc1Nc1ccc(CCc2cccc(C(F)(F)F)c2Cl)cc1 [Example 63] ? 207 to 209 °C

And what about the molecule O=C(O)c1ccccc1Nc1ccc(CCc2ccccc2)cc1 [Example 70, 2-(4-Phenethyl-phenylamino)-benzoic acid] ? 173 to 182 °C

And what about the molecule Cc1ccc(Nc2ccc(CCCc3ccc(Cl)c(Cl)c3)cc2)c(C(=O)O)c1 [Example 59] ? 98 to 99 °C

And what about the molecule O=C(O)c1ccccc1Nc1ccc(CCCCCc2ccc(Cl)c(Cl)c2)cc1 [Example 135] ? 106 to 108 °C

And what about the molecule Nc1cccc(CCc2ccc(Nc3ccccc3C(=O)O)cc2)c1 [Example 33] ? 182 to 184 °C

And what about the molecule COc1ccc(CCc2ccc(Nc3ccccc3C(=O)O)cc2)cc1OC [Example 116] ? 159 to 161 °C

And what about the molecule O=C(O)c1c(Nc2ccc(CCc3ccc(Cl)c(Cl)c3)cc2)cccc1C(F)(F)F [Example 78] ? 130 to 132 °C

And what about the molecule O=C(O)c1cc(F)ccc1Nc1ccc(CCc2ccc(Cl)c(Cl)c2)cc1 [Example 71] ? 180 to 182 °C

And what about the molecule O=C(O)c1ccc(C(F)(F)F)cc1Nc1ccc(CCc2ccc(Cl)c(Cl)c2)cc1 [Example 145] ? 134 to 136 °C

And what about the molecule CCCCN(CCCC)c1ccc(CCc2ccc(Nc3ccccc3C(=O)O)cc2)cc1 [Example 5] ? 115 to 117 °C

And what about the molecule CC(=O)Nc1cccc(CCc2ccc(Nc3ccccc3C(=O)O)cc2)c1 [Example 36] ? 213 to 215 °C
